Taken from paper PMC10137182.

System: H1975, PC9, and HCC827 parental and osimertinib-resistant cells
ASSAY OVERVIEW: Cell-growth-inhibition assays, summary over the cell panel
Format: cell-based
TEST SETTINGS: Homo sapiens, read-out: IC50s, osimertinib-sensitive cells (range over cell lines)
pIC50: −log10 of the molar value.
MEASURE: pIC50

Enquiry: Find the measured pIC50: item C=CC(=O)Nc1cc(Nc2nccc(-c3cn(C)c4ccccc34)n2)c(OC)cc1N(C)CCN(C)C [osimertinib] , target or system H1975, PC9, and HCC827 parental and osimertinib-resistant cells.
Return: 7.33 to 8.12
